target: cloned human or rodent CNS receptors, channels, and transporters (PDSP panel) (Homo sapiens, UniProt P20309); construct: expressed in transfected cells; assay: PDSP GPCR panel primary binding assays at 10 μM; conditions: M3; primary assay, replicate 1
Sequence (P20309 whole entry): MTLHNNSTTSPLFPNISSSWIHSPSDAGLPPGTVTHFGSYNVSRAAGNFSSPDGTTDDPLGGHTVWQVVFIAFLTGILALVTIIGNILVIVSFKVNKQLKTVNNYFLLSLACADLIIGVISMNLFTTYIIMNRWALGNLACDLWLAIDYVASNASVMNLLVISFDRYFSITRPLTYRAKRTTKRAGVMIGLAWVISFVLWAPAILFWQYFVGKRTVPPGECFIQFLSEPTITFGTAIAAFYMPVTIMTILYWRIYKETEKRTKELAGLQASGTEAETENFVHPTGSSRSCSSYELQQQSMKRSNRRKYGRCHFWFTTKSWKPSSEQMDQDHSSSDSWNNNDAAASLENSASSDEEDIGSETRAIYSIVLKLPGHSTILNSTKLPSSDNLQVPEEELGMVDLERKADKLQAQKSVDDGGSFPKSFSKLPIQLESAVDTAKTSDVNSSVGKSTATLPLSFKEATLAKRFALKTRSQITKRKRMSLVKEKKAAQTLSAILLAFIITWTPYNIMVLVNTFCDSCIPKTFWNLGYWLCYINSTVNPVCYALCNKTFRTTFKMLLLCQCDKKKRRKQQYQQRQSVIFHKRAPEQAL
Inhibition 1 for assorted molecules
Please respond with the number in % and leave the unit unwritten.

MOLECULE	Inhibition 1 [%]
CC(=O)N1CCC(NC(=O)NC23CC4CC(CC(C4)C2)C3)CC1 [UNC10302683A, AR9281]	-3
CCC(=O)N1CCC(NC(=O)Nc2ccc(OC(F)(F)F)cc2)CC1 [UNC10302681A, TPPU]	4.75
CNc1nc(C)nc(N[C@H]2CCC[C@@H](C(=O)NCc3ccc(C#N)cc3C(F)(F)F)C2)n1 [UNC10302679A, GSK2256294A]	7.99

Here is another molecule to look at.
Any idea what Inhibition 1 was measured for O=C(NC1CC1)C(=O)C(Cc1ccccc1)NC(=O)[C@H]1CCC(=O)N1Cc1ccccc1 (stereo partly shown) [UNC10302676A, ABT-957 (Alicapistat)] ?
3.98
